TEST_SYSTEM: human PPARα (Homo sapiens)
Construct: host or cells: proprietary non-human mammalian cells
Sequence (Q07869 whole entry): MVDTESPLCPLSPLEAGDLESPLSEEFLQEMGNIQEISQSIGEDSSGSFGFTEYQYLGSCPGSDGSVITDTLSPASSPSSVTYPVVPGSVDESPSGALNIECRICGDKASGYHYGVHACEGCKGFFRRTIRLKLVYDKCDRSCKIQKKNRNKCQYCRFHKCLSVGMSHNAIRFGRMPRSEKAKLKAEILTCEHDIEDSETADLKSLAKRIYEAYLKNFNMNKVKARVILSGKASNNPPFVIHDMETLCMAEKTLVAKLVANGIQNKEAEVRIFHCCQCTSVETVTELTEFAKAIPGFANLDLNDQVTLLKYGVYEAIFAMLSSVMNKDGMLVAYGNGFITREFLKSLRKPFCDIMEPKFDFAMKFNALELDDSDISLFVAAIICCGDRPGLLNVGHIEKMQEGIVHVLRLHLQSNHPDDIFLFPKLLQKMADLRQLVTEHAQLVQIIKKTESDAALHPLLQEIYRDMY
MEASUREMENT_DESCRIPTION: Human PPARα Reporter Assay (luciferase, Indigo Biosciences)
Format: cell-based
CONDITION_PARAMETERS: antagonism; luciferase reporter cells, overnight incubation; read-out: PPARα IC50
pIC50: −log10 of the molar value.
VALUE_KIND: pIC50

CC(C)c1ccc(CN2N=C(CCCc3ccc(OC(C)(C)C(=O)O)cc3)C(C)(C)C2=O)cc1 :: 7.66
CC1(C)C(=O)N(c2cccc(C(F)(F)F)c2)N=C1CCCc1ccc(OC(C)(C(=O)O)c2ccccc2)cc1 (single isomer, unassigned) [54-enantiomer#1] :: 6.19

(P) Cc1ccc(N2N=C(CCCc3ccc(OC(C)(C)C(=O)O)cc3)C3(CCCC3)C2=O)cc1C
(Q) CC(C)(Oc1ccc(CCCC2=NN(c3ccc(C(F)(F)F)cc3)C(=O)C23CCCC3)cc1)C(=O)NCC(F)(F)F
(R) CC(C)(Oc1ccc(CCCC2=NN(Cc3ccc(C(C)(C)C)cc3)C(=O)C2(C)C)cc1)C(=O)NCc1ccccn1
(S) CCCC1(CCC)C(=O)N(c2ccc(C(F)(F)F)cc2)N=C1CCCc1ccc(OC(C)(C)C(=O)O)cc1
(T) CC1(C)C(=O)N(c2ccc(C(F)(F)F)cc2)N=C1CCCc1ccc(OCC(=O)O)cc1
Req: Rank entries according to their pIC50, from the largest number down. // rank by listing labels in the order requested
Resp: P, T, R, Q, S
